# Subject of test: Ubiquitin carboxyl-terminal hydrolase 1 (Homo sapiens) (UniProt O94782)
# Sequence (O94782 whole entry, looked up): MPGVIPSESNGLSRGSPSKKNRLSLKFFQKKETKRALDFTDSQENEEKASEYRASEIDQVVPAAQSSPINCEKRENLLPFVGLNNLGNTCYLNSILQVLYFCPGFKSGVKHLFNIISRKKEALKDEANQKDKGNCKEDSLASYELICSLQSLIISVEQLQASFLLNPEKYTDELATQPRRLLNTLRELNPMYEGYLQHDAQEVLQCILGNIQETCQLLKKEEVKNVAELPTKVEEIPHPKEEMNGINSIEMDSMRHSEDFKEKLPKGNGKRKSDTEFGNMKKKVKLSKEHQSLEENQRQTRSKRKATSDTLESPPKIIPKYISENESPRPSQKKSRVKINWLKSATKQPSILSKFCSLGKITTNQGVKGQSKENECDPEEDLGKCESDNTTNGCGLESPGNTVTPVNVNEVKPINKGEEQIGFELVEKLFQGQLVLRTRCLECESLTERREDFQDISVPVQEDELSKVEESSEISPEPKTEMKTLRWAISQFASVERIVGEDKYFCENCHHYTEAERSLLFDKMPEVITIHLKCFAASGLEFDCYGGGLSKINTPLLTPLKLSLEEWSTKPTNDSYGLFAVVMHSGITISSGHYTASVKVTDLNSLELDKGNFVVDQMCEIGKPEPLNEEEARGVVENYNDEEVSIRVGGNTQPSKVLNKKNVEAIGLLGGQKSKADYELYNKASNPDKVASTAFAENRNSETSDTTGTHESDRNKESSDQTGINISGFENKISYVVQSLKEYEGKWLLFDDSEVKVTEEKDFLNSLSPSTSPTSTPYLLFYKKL
# Assay info: Inhibitors of USP1/UAF1: Pilot qHTS (AID 504865); also: nearly all actives have a fitted effect of over 35% in size
# Reported conditions: purified USP1/UAF1, Ub-rhodamine cleavage fluorescence; series mostly up to 114 µM
Records with an inconclusive call do not appear. Calls of active or inactive are those of the source. Calls follow the shape of the dose curve; as a rule, active = well fitted inhibition curve with a large enough effect; inconclusive = small, poorly fitted or top-dose-only effect; inactive = flat fitted curve, though single readings scatter.
Use one of these outcomes when replying: true (1) (active), false (0) (inactive)

CC(=O)c1c(O)c(C)c(O)c(Cc2c(O)c3c(c(C(=O)/C=C\c4ccccc4)c2O)OC(C)(C)C=C3)c1O: true (1)
C[N+]1(C)C2CC[C@H]1CC(OC(=O)[C@@H](CO)c1ccccc1)C2 (some centres not stated): false (0)
C=C[C@@H]1CN2CC[C@H]1C[C@H]2[C@H](O)c1ccnc2ccccc12: false (0)
CC[C@@H]1CN2CCc3cc(OC)c(OC)cc3[C@H]2C[C@@H]1C[C@@H]1NCCc2cc(O)c(OC)cc21: false (0)
C[C@@H]1O[C@@H](O[C@H]2C[C@@H](O)[C@@]3(CO)[C@H]4[C@H](O)C[C@]5(C)[C@@H](C6=CC(=O)OC6)CC[C@]5(O)[C@H]4CC[C@@]3(O)C2)[C@@H](O)[C@H](O)[C@H]1O: false (0)

Which outcome did this test record for the molecule O=C1C[C@@H]2OCC=C3CN4CC[C@]56c7ccccc7N1[C@@H]5[C@@H]2[C@H]3C[C@H]46 (tested in a mixture with another compound) ?
false (0)

C[N+]1([O-])[C@H]2CC[C@H]1CC(OC(=O)[C@@H](CO)c1ccccc1)C2 (some centres not stated) ?
false (0)

----------
# Assay info: Cell Viability - Renal Proximal Tubule (AID 545);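 also: cells exposed to compound for 40 hours; 0% = DMSO only and -100% = 100 µM tamoxifen; nearly all actives have a fitted effect of over 40% in size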
# Reported conditions: renal proximal tubule cells viability; series mostly up to 91.7 µM
Results filed as inconclusive are left out. Calls of active or inactive are those of the source. Calls come from the whole dose curve; as a rule, active = well fitted cell-killing curve with a large enough effect; inconclusive = small, poorly fitted or top-dose-only effect; inactive = flat fitted curve, though single readings scatter.
Reported endpoint: outcome

As a guide, the following entries are already answered.
C=CC(=O)OCCN(C)C: inactive
O=[N+]([O-])c1ccc(Cl)cc1: inactive
COc1ccc(C=O)cc1: inactive
N#C/C(N)=C(/N)C#N: inactive
C=CC=O: inactive
CN(C)C(=O)Nc1cccc(C(F)(F)F)c1: inactive
N#CCBr: inactive
CCCCCOC(=O)c1ccccc1C(=O)OCCCCC: inactive
CCOC(=O)CBr: inactive
C=CCOCC1CO1 (centres undefined): inactive

Param item = [O-][Cl+]O ; retrieve measured outcome.
inactive

CCOC(=O)C1OC1(C)c1ccccc1 (centres undefined) ?
inactive

CC(C)(C)OOC(=O)c1ccccc1 ?
inactive

C=CC(=O)OCC(CC)CCCC (centres undefined) ?
inactive

S=C1NCCN1 ?
inactive

C=CC(=O)OCC(C)C ?
inactive

----------
# Assay info: Cell Viability - Jurkat (AID 426);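 also: potency is read from the fitted curve at half-maximal effect; cells exposed to compound for 40 hours at 37 °C before ATP read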
# Reported conditions: qHTS
Records with an inconclusive call do not appear. The source made the active and inactive calls.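 How the source made its calls: active means dose-dependent loss of cell ATP signal giving a full or clear fitted curve, ranked by lower potency value; inconclusive means weak partial curve or response only at the top dose; inactive means no loss of viability signal.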
Use one of these outcomes when replying: 1 (active), -1 (inactive)

ClC(Cl)C(Cl)Cl: -1
CC(C)Br: -1
Cc1ccc(N)c(C)c1: -1
OCCBr: -1
c1ccc(P(c2ccccc2)c2ccccc2)cc1: -1

Which outcome did this test record for the compound Cl/C=C/Cl ?
-1

NNC(N)=S ?
-1

Nc1ccc(Cl)c(Cl)c1 ?
-1

----------
# Subject of test: Cytochrome P450 2C19 (Homo sapiens)
# Assay info: qHTS Assay for Inhibitors and Substrates of Cytochrome P450 2C19 (AID 899); also: nearly all actives have a fitted effect of over 60% in size
# Reported conditions: recombinant CYP2C19, luciferin-H EGE luminescence; series mostly up to 11.4 µM
Records with an inconclusive call do not appear. Active and inactive are the calls of the source. Calls come from the whole dose curve; as a rule, active = well fitted inhibition curve with a large enough effect; inconclusive = small, poorly fitted or top-dose-only effect; inactive = no such curve, though single readings can be large or run the other way.
Use one of these outcomes when replying: Yes = active, No = inactive

Completed entries (count: 4):
O=C(O)CN1CCN(CC(=O)O)CC(=O)[O][Hg][O]C(=O)C1: Yes
CN[C@H](Cc1ccccc1)c1cccc(OC)c1O: Yes
C[C@@H]1Cc2cc3c(cc2C(c2ccc(N)cc2)=NN1)OCO3: Yes
Cc1ccc(S(=O)ON2CCC(C(=O)O)(c3ccccc3)CC2)cc1 (stereo not given): No

Kindly review the next molecule as well.
Which outcome did this test record for the molecule CN[C@H]1[C@H](C)O[C@@H](O[C@@H]2C/C=C(/C)C/C(C)=C\C=C/CC[C@@H](C)CNC(=O)/C=C\C=C/[C@H]2C)C[C@@H]1O ?
No

----------
# Assay info: Cell Viability - LYMP2-026 (AID 989);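 also: cells exposed to compound for 24 h at 37 °C; nearly all actives have a fitted effect of over 50% in size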
# Reported conditions: LYMP2-026 lymphoblastoid cell viability, qHTS; series mostly up to 92.2 µM
Results filed as inconclusive are left out. Calls of active or inactive are those of the source. Calls follow the shape of the dose curve; as a rule, active = well fitted cell-killing curve with a large enough effect; inconclusive = small, poorly fitted or top-dose-only effect; inactive = flat fitted curve, though single readings scatter.
Use one of these outcomes when replying: active, inactive

N#C/C=C/C#N: active
c1ccc(NNc2ccccc2)cc1: inactive
C(CCOCC1CO1)COCC1CO1 (stereo unspecified): inactive
Brc1cccc(-c2ccccc2)c1: inactive
O=[N+]([O-])c1ccccc1CCl: inactive

Which outcome did this test record for the compound CCNCC ?
inactive

NC1CCC(CC2CCC(N)CC2)CC1 (stereo unspecified) ?
inactive

C=CCCl ?
inactive

OCC(Cl)CCl (stereo unspecified) ?
inactive

Cc1ccc(N=C=O)cc1N=C=O ?
inactive

COC(C)(C)C ?
inactive

O=C(O)c1cc(Cl)ccc1Cl ?
inactive

Brc1ccc(Oc2ccc(Br)cc2Br)c(Br)c1 ?
inactive

O=S(=O)(Cl)c1ccccc1 ?
inactive

CN1CSC(=S)N(C)C1 ?
active

CC12CC1(C)C(=O)N(c1cc(Cl)cc(Cl)c1)C2=O (stereo unspecified) ?
inactive

O=C(Cl)OCc1ccccc1 ?
inactive

Nc1cc(Cl)ccc1Cl ?
inactive

CCC#N ?
inactive

O=C(O)C(Br)CBr (stereo unspecified) ?
inactive

Clc1ccc(Cl)c(Cl)c1 ?
inactive

----------
# Assay info: Cell Viability - LYMP2-009 (AID 968);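 also: cells exposed to compound for 24 h at 37 °C; 0% = DMSO alone and the full-kill end = tetraoctylammonium bromide at 92 µM; nearly all actives have a fitted effect of over 55% in size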
# Reported conditions: LYMP2-009 lymphoblastoid cell viability; series mostly up to 92.2 µM
Inconclusive results are not listed. Active and inactive are the calls of the source. Calls follow the shape of the dose curve; as a rule, active = well fitted cell-killing curve with a large enough effect; inconclusive = small, poorly fitted or top-dose-only effect; inactive = flat fitted curve, though single readings scatter.
Use one of these outcomes when replying: TRUE (active), FALSE (inactive)

Completed entries (count: 6):
CCCCNC(=O)n1c(NC(=O)OC)nc2ccccc21: FALSE
C=CCCl: FALSE
ClCCOCCCl: FALSE
N#CCc1ccccc1: FALSE
N#CC(O)c1ccccc1 (stereo not given): FALSE
C[N+](=O)[O-]: FALSE

Kindly review the next compound as well.
Which outcome did this test record for the compound CCOP(=S)(OCC)SCCSCC ?
FALSE

----------
# Assay info: qHTS profiling for inhibitors of Plasmodium falciparum proliferation (AID 504749);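 also: 0% = DMSO vehicle and full inhibition = artemisinin control; nearly all actives have a fitted effect of over 60% in size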
# Reported conditions: P. falciparum in erythrocytes, SYBR Green DNA, 72 h; at 28.7 µM (top of the series); parasite line B
Inconclusive results are not listed.
// reported activity, negative = inhibition for each item listed
Use % as the unit, but write only the number.

As a guide, the following entries are already answered.
O=C1C[C@@H]2OCC=C3CN4CC[C@]56c7ccccc7N1[C@@H]5[C@@H]2[C@H]3C[C@H]46 (tested in a mixture with another compound): -15.1
C[C@@H](Cc1ccc(O)cc1)NC[C@@H](O)c1cc(O)cc(O)c1: 5.16
C[N+]1([O-])[C@H]2CC[C@H]1CC(OC(=O)[C@@H](CO)c1ccccc1)C2 (some centres undefined): -2.12

Param item = C[N+]1(C)C2CC[C@H]1CC(OC(=O)[C@@H](CO)c1ccccc1)C2 (some centres undefined) ; retrieve measured activity, negative = inhibition.
-9.85

----------
# Assay info: Cell Viability - LYMP2-023 (AID 975);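 also: cells exposed to compound for 24 hours at 37 °C; nearly all actives have a fitted effect of over 55% in size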
# Reported conditions: LYMP2-023 lymphoblastoid cell viability; series mostly up to 92.2 µM
Inconclusive results are not listed. Activity calls are given as the source filed them. The call rests on the fitted dose curve; in most records, active means well fitted cell-killing curve with a large enough effect; inconclusive means small, poorly fitted or top-dose-only effect; inactive means flat fitted curve, though single readings scatter.
Use one of these outcomes when replying: Y = active, N = inactive

CCC/C=N/O: N
CCCCCCCCCCCCCl: N
O=[N+]([O-])/C=C/c1ccccc1: Y
Oc1cc(Cl)cc(Cl)c1: N
Nc1cccc(Cl)c1: N

Kindly review the next molecule as well.
Which outcome did this test record for the molecule C/C=C/CC#N ?
N

----------
# Assay info: Cell Viability - LYMP2-016 (AID 984);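 also: cells exposed to compound for 24 hours at 37 °C; nearly all actives have a fitted effect of over 55% in size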
# Reported conditions: LYMP2-016 lymphoblastoid cell viability, qHTS; series mostly up to 92.2 µM
Results filed as inconclusive are left out. The source made the active and inactive calls. The call rests on the fitted dose curve; in most records, active means well fitted cell-killing curve with a large enough effect; inconclusive means small, poorly fitted or top-dose-only effect; inactive means flat fitted curve, though single readings scatter.
Use one of these outcomes when replying: active, inactive

CN(C)c1ccc(N)cc1: active
BrCCc1ccccc1: inactive
CCOC(=O)CC(SP(=O)(OC)OC)C(=O)OCC (stereo unspecified): inactive
CCC(Cl)[N+](=O)[O-] (stereo unspecified): inactive
Nc1ccc(Cc2ccc(N)cc2)cc1: inactive
O=[N+]([O-])c1cccc2c([N+](=O)[O-])cccc12: inactive
Nc1ccc(-c2ccccc2)cc1: inactive
Oc1cc(Cl)cc(Cl)c1: inactive

Kindly review the next compound as well.
Which outcome did this test record for the compound CN(C)c1ccc(N=Nc2ccccc2)cc1 ?
inactive
